# experimentalTarget: human GLP-1 receptor (human, UniProt P43220 24-463)
# assayText: cell-based or functional assay
Bridges are numbered along the chain shown (N, C = ends). Where no end group is shown, it is not given here. [ ]: non-standard residue; d: D form. Aib = CC(C)(N)C(=O)O
outcomeMeasure: EC50 (cAMP, CHO/GLP-1R) (nM)
Lab book: enter the figure in nM, no units written.

For orientation, consider the following solved cases.
binder | uom | EC50 (cAMP, CHO/GLP-1R)
Y[Aib]QGTFTSDYSKYLDEKRAKEFVQWLMNTC (bridge 16-20) [oxyntomodulin derivative of SEQ ID NO: 34] | nM | 12.5
H[Aib]QGTFTSDYAKYLDEKRAKEFVQWLMNTC (bridge 16-20) [oxyntomodulin derivative of SEQ ID NO: 33] | nM | 2.2

Asked: Fill in: EC50 (cAMP, CHO/GLP-1R) of H[Aib]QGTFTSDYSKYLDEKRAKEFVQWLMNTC (bridge 16-20) [oxyntomodulin derivative of SEQ ID NO: 25] is ___
Given back: 1.9

Just for reference, patent US20180177850A1 is where these values come from.
